System: MOLT-4 (human acute lymphoblastic leukemia)
Assay: Anti-proliferative activity test (CellTiter-Glo), MOLT-4
Type: cell-based
Conditions: Homo sapiens; MOLT-4, hematological
pIC50: −log10 of the molar value.
// reported pIC50 for each item listed

givenSmiles: Nc1ccn([C@@H]2O[C@H](CO)[C@@H](O)[C@@H]2O)c(=O)n1
pIC50: 7.70
//
givenSmiles: CCCC(=O)OC[C@H]1O[C@@](C#N)(n2ccc(N)nc2=O)[C@@H](O)[C@@H]1O
pIC50: 5.94

----------
Assay: Pharmacokinetics of Compounds 16, 22 and 23
Type: in vivo, SCID/mice
Conditions: SCID, mouse, plasma, 500 mg/kg; PO/500 mpk

molecule: O=c1ncccn1[C@@H]1O[C@H](CO)[C@@H](O)[C@H]1O [Compound 16, reference compound]
unitSpec: µM
Cmax: 22.3

----------
Experiment: Pharmacokinetics of Compounds 16, 22 and 23
Format: in vivo, SCID/mice
Details: SCID, mouse, plasma, 75 mg/kg; PO/75 mpk
Description: Pharmacokinetics of Compound 16 (Comparative example) prepared in step 3 of Example 2, and mutual prodrugs of Compounds 22 and 23 prepared in Example 3 and 4, respectively, were evaluated in SCID/mice following oral (PO) and intravenous (IV) administration according to the route/dose as shown in Table 4. Blood samples were collected over 24 hrs, and plasma samples were prepared. Plasma concentrations of the test compounds were analyzed by LC/MS/MS. […]
Measured Cmax accompanies every entry in the list below.
observable: Cmax (µM)

givenSmiles: CC(C)C(=O)OC[C@H]1O[C@@H](n2cccnc2=O)[C@H](OC(=O)C(C)C)[C@@H]1OC(=O)C(C)C
assayResult: 5.3

givenSmiles: CCCC(=O)OC[C@H]1O[C@@H](n2cccnc2=O)[C@H](OC(=O)CCC)[C@@H]1OC(=O)CCC
assayResult: 0.88

----------
Tested on: HL-60 (human acute promyelocytic leukemia)
Experiment: Anti-proliferative activity test (CellTiter-Glo), HL-60
Type: cell-based
Conditions: Homo sapiens; HL-60, hematological
pIC50: −log10 of the molar value.

molecule: Nc1ccn([C@@H]2O[C@H](CO)[C@@H](O)[C@@H]2O)c(=O)n1 [Ara-C, cytarabine]
pIC50: 6.20

molecule: CCCC(=O)OC[C@H]1O[C@@](C#N)(n2ccc(N)nc2=O)[C@@H](O)[C@@H]1O [Compound 12]
pIC50: 5.30

----------
Test: Pharmacokinetics of Compounds 16, 22 and 23
Assay type: in vivo, SCID/mice
Settings: SCID, mouse, plasma, 100 mg/kg; IV/100 mpk

compound: O=c1ncccn1[C@@H]1O[C@H](CO)[C@@H](O)[C@H]1O [Compound 16, reference compound]
unitSpec: mL/min/kg
clearance: 30.2

----------
Experiment: Pharmacokinetics of Compounds 16, 22 and 23
Type: in vivo, SCID/mice
Settings: SCID, mouse, plasma, 500 mg/kg; PO/500 mpk
observable: AUC (ng·h/mL)

compound: O=c1ncccn1[C@@H]1O[C@H](CO)[C@@H](O)[C@H]1O [Compound 16, reference compound]
unitSpec: ng·h/mL
assayResult: 20900

----------
Recorded measurements of AUC, one per entry
Experiment: Pharmacokinetics of Compounds 16, 22 and 23
Type: in vivo, SCID/mice
Conditions: SCID, mouse, plasma, 150 mg/kg; PO/150 mpk
observable: AUC

givenSmiles: CCCC(=O)OC[C@H]1O[C@@H](n2cccnc2=O)[C@H](OC(=O)CCC)[C@@H]1OC(=O)CCC
observable: AUC
assayResult: 1100 ng·h/mL

givenSmiles: CC(C)C(=O)OC[C@H]1O[C@@H](n2cccnc2=O)[C@H](OC(=O)C(C)C)[C@@H]1OC(=O)C(C)C
observable: AUC
assayResult: 6500 ng·h/mL

----------
Experiment: Pharmacokinetics of Compounds 16, 22 and 23
Format: in vivo, SCID/mice
Conditions: SCID, mouse, plasma, 100 mg/kg; IV/100 mpk

molecule: O=c1ncccn1[C@@H]1O[C@H](CO)[C@@H](O)[C@H]1O [Compound 16, reference compound]
unitSpec: h
half-life: 2.03

----------
Test: Mouse pharmacokinetics of Compound 12
Assay type: in vivo, ICR mice
Settings: ICR, plasma, PO, 10 mg/kg
observable: bioavailability (%)

molecule: CCCC(=O)OC[C@H]1O[C@@](C#N)(n2ccc(N)nc2=O)[C@@H](O)[C@@H]1O [Compound 12]
assayResult: 62

----------
Experiment: Rat pharmacokinetics of Compound 12
Format: in vivo, SD rats
Settings: SD, plasma, IV, 10 mg/kg

molecule: CCCC(=O)OC[C@H]1O[C@@](C#N)(n2ccc(N)nc2=O)[C@@H](O)[C@@H]1O [Compound 12]
half-life, h: 3.1

----------
Assay: Pharmacokinetics of Compounds 16, 22 and 23
Type: in vivo, SCID/mice
Conditions: SCID, mouse, plasma, 100 mg/kg; IV/100 mpk

molecule: O=c1ncccn1[C@@H]1O[C@H](CO)[C@@H](O)[C@H]1O [Compound 16, reference compound]
AUC: 54600 ng·h/mL

----------
Experiment: Pharmacokinetics of Compounds 16, 22 and 23
Type: in vivo, SCID/mice
Details: SCID, mouse, plasma, 150 mg/kg; PO/150 mpk
Experimental: Pharmacokinetics of Compound 16 (Comparative example) prepared in step 3 of Example 2, and mutual prodrugs of Compounds 22 and 23 prepared in Example 3 and 4, respectively, were evaluated in SCID/mice following oral (PO) and intravenous (IV) administration according to the route/dose as shown in Table 4. Blood samples were collected over 24 hrs, and plasma samples were prepared. Plasma concentrations of the test compounds were analyzed by LC/MS/MS. […]
Each record here notes measured half-life.

givenSmiles: CCCC(=O)OC[C@H]1O[C@@H](n2cccnc2=O)[C@H](OC(=O)CCC)[C@@H]1OC(=O)CCC
unitSpec: h
half-life: 1.6
//
givenSmiles: CC(C)C(=O)OC[C@H]1O[C@@H](n2cccnc2=O)[C@H](OC(=O)C(C)C)[C@@H]1OC(=O)C(C)C
unitSpec: h
half-life: 4.9

Reference source for all entries: patent US10500224B2
